tested target: T1, human CD73 (human, UniProt P21589 27-549)
T1 construct: the antigen of the Biacore assay is only called human CD73 antigen; also called human CD73 antigen; Recombinant Human CD73-6xHis
T1 sequence: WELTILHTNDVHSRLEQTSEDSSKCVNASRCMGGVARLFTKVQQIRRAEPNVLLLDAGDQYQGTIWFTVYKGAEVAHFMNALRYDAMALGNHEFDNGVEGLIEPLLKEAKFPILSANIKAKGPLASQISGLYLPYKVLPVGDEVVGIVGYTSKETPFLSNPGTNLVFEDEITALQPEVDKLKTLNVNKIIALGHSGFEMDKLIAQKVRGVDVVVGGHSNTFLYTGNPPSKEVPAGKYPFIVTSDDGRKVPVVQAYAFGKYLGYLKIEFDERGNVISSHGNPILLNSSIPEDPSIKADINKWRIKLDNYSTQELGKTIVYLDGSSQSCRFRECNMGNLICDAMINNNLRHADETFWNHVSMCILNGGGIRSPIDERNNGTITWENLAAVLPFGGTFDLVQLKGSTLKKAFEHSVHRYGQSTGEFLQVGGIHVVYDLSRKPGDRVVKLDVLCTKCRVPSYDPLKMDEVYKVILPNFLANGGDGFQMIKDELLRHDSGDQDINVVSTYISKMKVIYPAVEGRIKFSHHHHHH
test name: Biacore SPR
assay metric: Kd
Provide the measurement as a number trailed by its unit.

In: Identify measured Kd associated with 10H5 antibody (antibody, V domains shown, Mouse scFv-derived variable domains put into an expression vector with CH and CL chains (full-length chimeric antibody); also called 10H5 chimeric; 10H5 MM) VH: QVKLQQSGAELVKPGASVKISCKASGYVFSSYWINWVKQRPGKGLEWIGQIYPGDGNTNYNRNFKGKATLTADKSSSTAYMQLSSLTSEDSAVYFCAGFADWGQGTTVTVSS VL: DIELTQSPSSLSASLGERVSLTCRASQDIGDSLIWLQQEPDGTIKRLIYATSSLDSGVPKRFSGSRSGTSYSLTISSVEAEDAATYYCQQYSGYPLTFGSGTKLEIK
Out: 0.683 nM
